Target: human CD47 (hCD47) (human, UniProt Q08722 19-139, limits assumed)
Sequence (Q08722 19-139 limits assumed): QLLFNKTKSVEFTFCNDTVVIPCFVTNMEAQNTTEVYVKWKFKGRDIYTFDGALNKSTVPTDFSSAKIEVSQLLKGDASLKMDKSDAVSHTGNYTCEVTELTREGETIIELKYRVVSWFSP
Experiment: blocking ELISA, coated hCD47 ECD Fc, supernatant + biotin-SIRPα ECD His
Can you tell me Blocking ability (%) for the items I'm about to list?
Answers are plain numbers, in %.

Below, 3 binders whose answers are already recorded.
binder: 4RP13-3-7B (designed binder, tested as bacterial supernatant; also called S-28; hSIRPα-mt10 (IgV domain)) hSIRPα IgV domain mutant: EEELQVIQPDKSVSVAAGESAILTCTVTSLYPVGPIQWFRGAGPARELIYNQKRQTFPRVTTVSESTKRFNMDFSISISNITPADAGTYYCVKFRKGSPDTEFKSGAGTELSVRAKPS
readoutUnits: %
Blocking ability (%): 92.4
--
binder: 4RP6-1-10A (designed binder, tested as bacterial supernatant; also called S-16; hSIRPα-mt13 (IgV domain)) hSIRPα IgV domain mutant: EEELQVIQPDKSVSVAAGESAILHCTVTSLLPVGPIQWFRGAGPARELIYNQKDFLFPRVTTVSESTKRENRDFSISISNITPADAGTYYCVKFRKGSPDTEFKSGAGTELSVRAKPS
readoutUnits: %
Blocking ability (%): 80.1
--
binder: 4RP13-1-2G (designed binder, tested as bacterial supernatant; also called S-5; hSIRPα-mt4 (IgV domain)) hSIRPα IgV domain mutant: EEELQVIQPDKSVSVAAGESAILRCTVTSLWPVGPIQWFRGAGPARELIYNQKAFIFPRVTTVSESTKRGNMDFSISISNITPADAGTYYCVKFRKGSPDTEFKSGAGTELSVRAKPS
readoutUnits: %
Blocking ability (%): 96.9

Take each entry in turn and give its Blocking ability (%).
1. 4RP13-1-7A (designed binder, tested as bacterial supernatant; also called S-19; hSIRPα-mt8 (IgV domain)) hSIRPα IgV domain mutant: EEELQVIQPDKSVSVAAGESAILHCTVTSLKPVGPIQWFRGAGPARELIYNQKRDTFPRVTTVSESTKRENRDFSISISNITPADAGTYYCVKFRKGSPDTEFKSGAGTELSVRAKPS
2. 4RP13-4-5C (designed binder, tested as bacterial supernatant; also called S-21; hSIRPα-mt5 (IgV domain)) hSIRPα IgV domain mutant: EEELQVIQPDKSVSVAAGESAILNCTVTSLIPVGPIQWFRGAGPARELIYNQKHQTFPRVTTVSEQTKRENRDFSISISNITPADAGTYYCVKFRKGSPDTEFKSGAGTELSVRAKPS
3. 4RP13-3-11A (designed binder, tested as bacterial supernatant; also called S-2; hSIRPα-mt3 (IgV domain)) hSIRPα IgV domain mutant: EEELQVIQPDKSVSVAAGESAILHCTVTSLWPVGPIQWFRGAGPARELIYNQKAWPFPRVTTVSESTKRENMDFSISISNITPADAGTYYCVKFRKGSPDTEFKSGAGTELSVRAKPS
4. 2RP-1-3E (designed binder, tested as bacterial supernatant; also called S-7; hSIRPα-mt9 (IgV domain)) hSIRPα IgV domain mutant: EEELQVIQPDKSVSVAAGESAILTCTVTSLWPVGPIQWFRGAGPARELIYNQKGQNFPRVTTVSESTKRFNMDFSISISNITPADAGTYYCVKFRKGSPDTEFKSGAGTELSVRAKPS
5. 4RP13-3-4D (designed binder, tested as bacterial supernatant; also called S-11; hSIRPα-mt11 (IgV domain)) hSIRPα IgV domain mutant: EEELQVIQPDKSVSVAAGESAILHCTVTSLLPVGPIQWFRGAGPARELIYNQKSKVFPRVTTVSESTKRRNMDFSISISNITPADAGTYYCVKFRKGSPDTEFKSGAGTELSVRAKPS
6. 4RP13-3-10B (designed binder, tested as bacterial supernatant; also called S-26; hSIRPα-mt12 (IgV domain)) hSIRPα IgV domain mutant: EEELQVIQPDKSVSVAAGESAILHCTVTSLYPVGPIQWFRGAGPARELIYNQKGRRFPRVTTVSESTKRANMDFSISISNITPADAGTYYCVKFRKGSPDTEFKSGAGTELSVRAKPS

1. 95.8
2. 96.3
3. 93.3
4. 99.9
5. 99.8
6. 94.7
